Tested on: Mus musculus
Test: Inhibition of reserpine (5 mg/kg i.p.) induced hypothermia in mice 4 hr after i.p. administration.
Type: functional
Conditions: ip
The label satisfied is reserved for ED50 strictly under 10 mg/kg; not satisfied covers values equal to or above it.

Field: below-cutoff. Rule: recorded ED50 strictly less than 10 mg/kg. Subject: OC1(c2cccnc2)Cc2ccccc2C2=NCCN21 (centres undefined)
not satisfied

Field: below-cutoff. Rule: recorded ED50 strictly less than 10 mg/kg. Subject: COc1ccc(C2(O)Cc3ccccc3C3=NCCN32)cc1 (centres undefined)
not satisfied

Field: below-cutoff. Rule: recorded ED50 strictly less than 10 mg/kg. Subject: OC1(c2cccc(F)c2)Cc2ccccc2C2=NCCN21 (centres undefined)
satisfied

Field: below-cutoff. Rule: recorded ED50 strictly less than 10 mg/kg. Subject: "CN(C)CCCN1c2ccccc2CCc2ccccc21"
not satisfied

Field: below-cutoff. Rule: recorded ED50 strictly less than 10 mg/kg. Subject: OC1(c2ccc(Cl)cc2Cl)Cc2ccccc2C2=NCCN21 (centres undefined)
not satisfied

Field: below-cutoff. Rule: recorded ED50 strictly less than 10 mg/kg. Subject: OC1(c2cccc(C(F)(F)F)c2)Cc2ccccc2C2=NCCN21 (centres undefined)
not satisfied

Field: below-cutoff. Rule: recorded ED50 strictly less than 10 mg/kg. Subject: Cc1ccc(C2(O)Cc3ccccc3C3=NCCN32)cc1 (centres undefined)
not satisfied

Field: below-cutoff. Rule: recorded ED50 strictly less than 10 mg/kg. Subject: OC1(c2cccc(Cl)c2)Cc2ccccc2C2=NCCN21 (centres undefined)
not satisfied

Field: below-cutoff. Rule: recorded ED50 strictly less than 10 mg/kg. Subject: OC1(c2ccc3c(c2)OCO3)Cc2ccccc2C2=NCCN21 (centres undefined)
satisfied

Field: below-cutoff. Rule: recorded ED50 strictly less than 10 mg/kg. Subject: OC1(c2ccncc2)Cc2ccccc2C2=NCCN21 (centres undefined)
satisfied

Field: below-cutoff. Rule: recorded ED50 strictly less than 10 mg/kg. Subject: OC1(c2ccccc2F)Cc2ccccc2C2=NCCN21 (centres undefined)
not satisfied

Field: below-cutoff. Rule: recorded ED50 strictly less than 10 mg/kg. Subject: OC1(Cc2ccccc2)Cc2ccccc2C2=NCCN21 (centres undefined)
not satisfied

Field: below-cutoff. Rule: recorded ED50 strictly less than 10 mg/kg. Subject: OC1(c2cccs2)Cc2ccccc2C2=NCCN21 (centres undefined)
not satisfied

Field: below-cutoff. Rule: recorded ED50 strictly less than 10 mg/kg. Subject: OC1(c2ccc(Cl)cc2)Cc2ccccc2C2=NCCN21 (centres undefined)
satisfied

Field: below-cutoff. Rule: recorded ED50 strictly less than 10 mg/kg. Subject: OC1(c2ccc(Cl)cc2)c2ccccc2C2=NCCN21 (centres undefined)
satisfied

Field: below-cutoff. Rule: recorded ED50 strictly less than 10 mg/kg. Subject: OC1(c2ccccc2Cl)Cc2ccccc2C2=NCCN21 (centres undefined)
not satisfied

Field: below-cutoff. Rule: recorded ED50 strictly less than 10 mg/kg. Subject: OC1(c2ccc(Cl)c(Cl)c2)Cc2ccccc2C2=NCCN21 (centres undefined)
not satisfied
